target: UniProt:P00533; assay: Tested for ability to inhibit autophosphorylation of the Epidermal growth factor receptor in human epidermoid carcinoma cells
Kindly supply the reported pIC50 values for the records listed here.
Give bare numbers, as −log10 of the molar value.

- molecule-smiles: "CNc1ncc2ncnc(Nc3cccc(Br)c3)c2n1"
  pIC50: 7.52
- molecule-smiles: "Brc1cccc(Nc2ncnc3cnc(NCCN4CCOCC4)nc23)c1"
  pIC50: 8.51

## Input Find pIC50 (UniProt:P00533) for the entry Brc1cccc(Nc2ncnc3cnc(NCCc4c[nH]cn4)nc23)c1
## Output 8.29

---

molecular target: Epidermal growth factor receptor (Homo sapiens); assay: Tested for inhibition of PLC gamma-derived substrate in Epidermal growth factor receptor stimulated A431 cells
endpoint-label: IC50
Reply with the number and its unit after it.

- molecule-smiles: "CNc1ccc2ncnc(Nc3cccc(Br)c3)c2c1"
  IC50: "11 nM"

Next, consider the following compound.
## Input Entry under review: CN(C)c1cc2c(Nc3cccc(Br)c3)ncnc2cn1 . Reported IC50?
## Output 2.6 nM

---

target: Epidermal growth factor receptor (Homo sapiens, UniProt P00533); assay: Inhibition of phosphorylation of phospholipase C gamma1 by Epidermal growth factor receptor, from human A431 carcinoma cell vesicles
Sequence (P00533 whole entry): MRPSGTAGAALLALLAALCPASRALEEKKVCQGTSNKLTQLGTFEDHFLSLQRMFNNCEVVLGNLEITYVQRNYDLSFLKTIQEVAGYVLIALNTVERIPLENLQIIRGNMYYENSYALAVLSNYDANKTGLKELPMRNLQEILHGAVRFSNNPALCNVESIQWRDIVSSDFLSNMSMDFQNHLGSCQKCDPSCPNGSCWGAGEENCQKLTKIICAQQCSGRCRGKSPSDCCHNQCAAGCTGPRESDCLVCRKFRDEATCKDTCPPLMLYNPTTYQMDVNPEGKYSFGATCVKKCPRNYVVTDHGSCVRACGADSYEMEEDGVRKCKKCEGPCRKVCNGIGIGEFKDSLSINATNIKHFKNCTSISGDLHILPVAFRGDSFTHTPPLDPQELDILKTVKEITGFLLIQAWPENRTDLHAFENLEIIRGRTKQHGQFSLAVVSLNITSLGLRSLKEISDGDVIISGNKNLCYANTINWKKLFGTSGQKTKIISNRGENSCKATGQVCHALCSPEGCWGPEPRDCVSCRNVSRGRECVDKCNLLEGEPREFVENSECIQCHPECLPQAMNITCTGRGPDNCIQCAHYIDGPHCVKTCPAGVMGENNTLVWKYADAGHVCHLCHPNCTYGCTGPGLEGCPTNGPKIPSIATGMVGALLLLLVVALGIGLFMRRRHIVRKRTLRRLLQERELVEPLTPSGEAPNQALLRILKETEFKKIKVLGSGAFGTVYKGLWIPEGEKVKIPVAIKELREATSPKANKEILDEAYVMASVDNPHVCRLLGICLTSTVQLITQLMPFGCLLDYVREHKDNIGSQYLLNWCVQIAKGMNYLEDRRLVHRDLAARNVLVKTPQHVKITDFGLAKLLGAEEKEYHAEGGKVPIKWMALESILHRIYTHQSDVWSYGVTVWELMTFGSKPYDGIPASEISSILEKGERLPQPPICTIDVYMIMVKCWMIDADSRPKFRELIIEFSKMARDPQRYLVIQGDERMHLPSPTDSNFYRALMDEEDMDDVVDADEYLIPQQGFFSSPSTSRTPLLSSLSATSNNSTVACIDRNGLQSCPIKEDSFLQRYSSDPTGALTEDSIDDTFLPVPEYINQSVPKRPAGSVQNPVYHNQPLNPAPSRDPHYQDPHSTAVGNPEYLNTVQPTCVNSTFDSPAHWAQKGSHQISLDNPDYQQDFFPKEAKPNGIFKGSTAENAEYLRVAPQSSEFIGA
Kindly state log10(IC50) for each of the entries shown.
For clarity, the numbers are log10 values of IC50 expressed in nM.

Recorded results for 3 compounds are shown here.
- molecule-smiles: "COc1ncc2ncnc(Nc3cccc(Br)c3)c2n1"
  endpoint-label: "log10(IC50)"
  recorded-value: 0.58
- molecule-smiles: "CN(C)CCNc1ncc2ncnc(Nc3cccc(Br)c3)c2n1"
  endpoint-label: "log10(IC50)"
  recorded-value: 1.54
- molecule-smiles: "CNc1ncc2ncnc(Nc3cccc(Br)c3)c2n1"
  endpoint-label: "log10(IC50)"
  recorded-value: -0.12

For every listed record, write down its log10(IC50).
1. Cc1cccc(Nc2ncnc3cnc(N)nc23)c1
2. Brc1cccc(Nc2ncnc3cnc(NCCN4CCOCC4)nc23)c1
3. Clc1ncc2ncnc(Nc3ccccc3)c2n1
4. Cc1cccc(Nc2ncnc3cnc(Cl)nc23)c1
5. Cc1cccc(Nc2ncnc3cnc(N(C)C)nc23)c1
6. Cc1cccc(Nc2ncnc3cnc(NCCc4c[nH]cn4)nc23)c1
7. Cc1cccc(Nc2ncnc3cnc(NCCN4CCOCC4)nc23)c1

## Output
[1.23, -0.09, 3.41, 2.58, 0.60, 0.48, 0.36]

# map each compound to its log10(IC50)
1. Brc1cccc(Nc2ncnc3cnc(NCCCn4ccnc4)nc23)c1
2. CNc1ncc2ncnc(Nc3ccccc3)c2n1
3. Clc1ncc2ncnc(Nc3cccc(Br)c3)c2n1
4. Nc1ncc2ncnc(Nc3cccc(Br)c3)c2n1
5. Brc1cccc(Nc2ncnc3cnc(NCCc4c[nH]cn4)nc23)c1

## Output
1. 0.36
2. 1.11
3. 1.91
4. 0.18
5. -0.60

---

target: Epidermal growth factor receptor (Homo sapiens, UniProt P00533); test: Tested for inhibition of autophosphorylation in Epidermal growth factor receptor stimulated A431 cells
endpoint-label: pIC50
Numbers only, as −log10 of the molar value.

## Input Quick one: pIC50 for CN(C)c1cc2c(Nc3cccc(Br)c3)ncnc2cn1 ?
## Output 7.92
